Tested on: HT-29
Experiment: Cytotoxicity against human HT-29 cells after 72 hrs by neutral red dye assay
Type: functional, cell-based
Conditions: HT-29, 72 h
Categories are assigned from the measured IC50 using these intervals: low-valued: < 4 µM; mid-valued: ≥ 4 µM and < 10 µM; high-valued: ≥ 10 µM

>  <Item Smiles>
CCCCNc1nc(SCCCC)nc2ncccc12

>  <Category>
high-valued

$$$$
>  <Item Smiles>
c1ccc(CCCCNc2nc(NCCCCc3ccccc3)c3cccnc3n2)cc1

>  <Category>
mid-valued

$$$$
>  <Item Smiles>
CCCCCNc1nc(SCCCC)nc2ncccc12

>  <Category>
high-valued

$$$$
>  <Item Smiles>
CCCCCCNc1nc(NCCCCCC)c2cccnc2n1

>  <Category>
mid-valued

$$$$
>  <Item Smiles>
CCCCCCCNc1nc(SC(C)C)nc2ncccc12

>  <Category>
high-valued

$$$$
>  <Item Smiles>
c1ccc(CCCNc2nc(NCCCc3ccccc3)c3ccccc3n2)cc1

>  <Category>
low-valued

$$$$
>  <Item Smiles>
Cc1ccc(CNc2nc(NCc3ccc(C)cc3)c3ccccc3n2)cc1

>  <Category>
mid-valued

$$$$
>  <Item Smiles>
CCCCCNc1nc(NCCCCC)c2ccccc2n1

>  <Category>
low-valued

$$$$
>  <Item Smiles>
c1ccc2c(CCNc3nc(NCCc4c[nH]c5ccccc45)c4cccnc4n3)c[nH]c2c1

>  <Category>
low-valued

$$$$
>  <Item Smiles>
COc1ccc(CNc2nc(NCc3ccc(OC)cc3)c3ccccc3n2)cc1

>  <Category>
low-valued

$$$$
>  <Item Smiles>
Clc1ccc(CNc2nc(NCc3ccc(Cl)cc3)c3cccnc3n2)cc1

>  <Category>
high-valued

$$$$
>  <Item Smiles>
CCCCCCNc1nc(SCCCCC)nc2ncccc12

>  <Category>
high-valued

$$$$
>  <Item Smiles>
Clc1ccc(CNc2nc(NCc3ccc(Cl)cc3)c3ccccc3n2)cc1

>  <Category>
mid-valued

$$$$
>  <Item Smiles>
CCCCCNc1nc(SC(C)C)nc2ncccc12

>  <Category>
high-valued

$$$$
>  <Item Smiles>
COc1ccc(CNc2ccnc(NCc3ccc(OC)cc3)n2)cc1

>  <Category>
high-valued

$$$$
